Target: RET-G810S enzyme (Homo sapiens (Human), UniProt P07949, G810S)
Sequence (P07949 29-1114 G810S): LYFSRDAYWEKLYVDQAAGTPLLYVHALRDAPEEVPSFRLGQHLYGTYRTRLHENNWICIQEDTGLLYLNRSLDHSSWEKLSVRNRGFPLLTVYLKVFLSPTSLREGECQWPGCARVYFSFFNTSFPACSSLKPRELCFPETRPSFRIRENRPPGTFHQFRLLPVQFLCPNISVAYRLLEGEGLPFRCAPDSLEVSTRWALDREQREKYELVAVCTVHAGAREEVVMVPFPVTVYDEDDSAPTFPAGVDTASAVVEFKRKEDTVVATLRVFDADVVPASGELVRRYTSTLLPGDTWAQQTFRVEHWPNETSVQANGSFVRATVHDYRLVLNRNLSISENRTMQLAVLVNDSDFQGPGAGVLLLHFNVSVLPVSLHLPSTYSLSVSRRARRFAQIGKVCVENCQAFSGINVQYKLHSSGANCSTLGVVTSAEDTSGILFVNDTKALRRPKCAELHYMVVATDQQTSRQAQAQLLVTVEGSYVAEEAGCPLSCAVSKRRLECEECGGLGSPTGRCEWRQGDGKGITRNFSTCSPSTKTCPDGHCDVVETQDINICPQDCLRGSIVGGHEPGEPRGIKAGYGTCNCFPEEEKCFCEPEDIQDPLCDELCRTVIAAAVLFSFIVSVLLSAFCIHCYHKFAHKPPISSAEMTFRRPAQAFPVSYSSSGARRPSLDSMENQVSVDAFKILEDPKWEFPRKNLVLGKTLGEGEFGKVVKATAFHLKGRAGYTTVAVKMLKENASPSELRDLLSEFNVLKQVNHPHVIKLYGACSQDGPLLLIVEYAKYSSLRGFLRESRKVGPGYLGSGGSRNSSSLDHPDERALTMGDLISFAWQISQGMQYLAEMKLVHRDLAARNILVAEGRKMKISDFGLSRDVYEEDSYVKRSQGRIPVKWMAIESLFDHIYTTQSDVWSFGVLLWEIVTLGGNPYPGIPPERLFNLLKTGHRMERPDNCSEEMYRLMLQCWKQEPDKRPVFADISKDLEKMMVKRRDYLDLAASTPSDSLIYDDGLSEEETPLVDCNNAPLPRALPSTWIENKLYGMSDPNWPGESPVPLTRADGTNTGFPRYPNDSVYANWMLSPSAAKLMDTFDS
Assay: RET inhibition experiment, HTRF KinEASE-TK kit, RET-G810S
Format: biochemical
Settings: Table 7, value ± spread

# compound, IC50, nM
records = [
    ("Cc1cc(Nc2cc(C)[nH]n2)nc(-c2ccc(N3CC4CC(C3)N4Cc3ccc(-n4cc(F)cn4)nc3)nc2)n1.O=C(O)/C=C/C(=O)O [Compound 1-A]", 2.69),
]

###

Target: RET-G810C enzyme (Homo sapiens (Human), UniProt P07949, G810C)
Sequence (P07949 29-1114 G810C): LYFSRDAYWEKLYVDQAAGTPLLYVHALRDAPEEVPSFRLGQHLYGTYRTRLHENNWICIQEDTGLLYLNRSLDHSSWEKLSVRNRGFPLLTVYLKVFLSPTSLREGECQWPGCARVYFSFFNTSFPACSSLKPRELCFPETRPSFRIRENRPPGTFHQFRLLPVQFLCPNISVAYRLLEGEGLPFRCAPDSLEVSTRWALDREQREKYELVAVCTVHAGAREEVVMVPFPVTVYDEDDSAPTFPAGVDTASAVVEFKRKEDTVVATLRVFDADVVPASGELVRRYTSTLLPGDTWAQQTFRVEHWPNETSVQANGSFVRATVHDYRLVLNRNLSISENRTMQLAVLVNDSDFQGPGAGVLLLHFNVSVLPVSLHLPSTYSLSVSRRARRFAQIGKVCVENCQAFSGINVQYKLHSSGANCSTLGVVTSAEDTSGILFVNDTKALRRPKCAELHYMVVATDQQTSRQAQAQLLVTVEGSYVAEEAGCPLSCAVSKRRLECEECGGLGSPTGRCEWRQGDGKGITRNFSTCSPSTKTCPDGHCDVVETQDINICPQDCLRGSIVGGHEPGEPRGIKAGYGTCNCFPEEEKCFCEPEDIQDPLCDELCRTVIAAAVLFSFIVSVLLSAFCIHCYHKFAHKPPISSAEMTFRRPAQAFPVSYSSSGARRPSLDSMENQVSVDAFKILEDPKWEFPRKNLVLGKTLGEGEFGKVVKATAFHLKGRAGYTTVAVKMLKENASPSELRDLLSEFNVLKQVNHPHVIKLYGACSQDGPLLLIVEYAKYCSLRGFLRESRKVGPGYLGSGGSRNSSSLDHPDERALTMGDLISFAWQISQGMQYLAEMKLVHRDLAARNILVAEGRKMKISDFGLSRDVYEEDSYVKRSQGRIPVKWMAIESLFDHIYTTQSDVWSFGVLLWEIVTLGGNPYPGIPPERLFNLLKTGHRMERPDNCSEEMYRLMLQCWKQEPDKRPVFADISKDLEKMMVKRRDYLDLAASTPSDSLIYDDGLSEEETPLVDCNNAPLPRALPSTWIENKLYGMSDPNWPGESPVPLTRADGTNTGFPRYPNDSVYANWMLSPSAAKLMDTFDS
Assay: RET inhibition experiment, HTRF KinEASE-TK kit, RET-G810C
Type: biochemical
Settings: Table 6
Entries annotated with measured IC50
reported_endpoint: IC50 (nM)

# molecule, value_observed
measured = [
    ("Cc1cc(Nc2cc(C)[nH]n2)nc(-c2ccc(N3CC4CC(C3)N4Cc3ccc(-c4ccc[nH]4)nc3)nc2)n1 [Compound 21]", 173),
    ("Cc1cc(Nc2cc(C)[nH]n2)nc(-c2ccc(N3CC4CC(C3)N4Cc3ccc(-n4cc(F)c(C(C)(C)O)n4)nc3)nc2)n1.O=C(O)/C=C/C(=O)O [Compound 30-A]", 125),
    ("Cc1cc(Nc2cc(C)[nH]n2)nc(-c2ccc(N3CC4CC(C3)N4Cc3ccc(-n4cc(F)cn4)nc3)nc2)n1 [Compound 18]", 36.3),
]

###

Molecular target: RET-G810C enzyme (Homo sapiens (Human), UniProt P07949, G810C)
Test: RET inhibition experiment, HTRF KinEASE-TK kit, RET-G810C
Format: biochemical
Conditions: compound concentration 300 nM

# smiles_code, Inhibition rate on RET-G810C (%)
records = [
    ("Cc1cc(Nc2cc(C)[nH]n2)nc(-c2ccc(N3CC4CC(C3)N4Cc3ccc(-c4ccc(F)[nH]4)nc3)nc2)n1", 82.66),
    ("Cc1cc(Nc2cc(C)[nH]n2)nc(-c2ccc(N3CC4CC(C3)N4Cc3ccc(-n4cc(C)c(C)n4)nc3)nc2)n1", 69.10),
    ("Cc1cc(Nc2cc(C)[nH]n2)nc(-c2ccc(N3CC4CC(C3)N4Cc3ccc(-n4ncc(F)c4C)nc3)nc2)n1", 86.86),
    ("Cc1cc(Nc2cc(C)[nH]n2)nc(-c2ccc(N3CC4CC(C3)N4Cc3ccc(-n4ncc(F)c4C4CC4)nc3)nc2)n1", 84.26),
    ("Cc1cc(Nc2cc(C)[nH]n2)nc(-c2ccc(N3CC4CC(C3)N4Cc3ccc(-n4nccc4OC4CC4)nc3)nc2)n1", 82.80),
]

###

Target: RET-G810S enzyme (Homo sapiens (Human), UniProt P07949, G810S)
Test: RET inhibition experiment, HTRF KinEASE-TK kit, RET-G810S
Type: biochemical
Conditions: Table 4
Entries annotated with measured IC50

# smiles_code, IC50
measured = [
    ("Cc1cc(Nc2cc(C)[nH]n2)nc(-c2ccc(N3CC4CC(C3)N4Cc3ccc(-n4ccc(C(C)(C)O)n4)nc3)nc2)n1", "57.2 nM"),
    ("Cc1cc(Nc2cc(C)[nH]n2)nc(-c2ccc(N3CC4CC(C3)N4Cc3ccc(-n4cc(F)cn4)nc3)nc2)n1", "15.9 nM"),
    ("Cc1cc(Nc2cc(C)[nH]n2)nc(-c2ccc(N3CC4CC(C3)N4Cc3ccc(-c4ccc(F)[nH]4)nc3)nc2)n1", "23.1 nM"),
    ("Cc1cc(Nc2cc(C)[nH]n2)nc(-c2ccc(N3CC4CC(C3)N4Cc3ccc(-c4ccc[nH]4)nc3)nc2)n1", "6.61 nM"),
]
